Cited source: patent US9815851B2

target: RORγ (UniProt P51449); experiment: RORγ Gal4 Reporter Gene Assay in 293T cells (firefly and renilla luciferase); format: cell-based, human; details: second value of the cell; Gal4 reporter gene assay in 293T cells, firefly luciferase
PROPERTY_MEASURED: pIC50 (FF)
Reply with the value as a number alone.

| SUBSTANCE_SMILES | READING |
| --- | --- |
| CC(C)(C)NS(=O)(=O)c1ccc(-c2cc(C(=O)N[C@H]3C[C@H](C(=O)O)C3)c(F)n2CC2CCCCC2)c2ccccc12 | 7.0 |

Query Cc1c(C(=O)NC2CCOCC2)cc(-c2cc(C(=O)NC(C)(C)C)cc(C(C)(C)O)c2)n1CC1CCCCC1 yields pIC50 (FF) of 5.9

Query Cc1c(C(=O)NC2CCS(=O)(=O)CC2)cc(-c2ccc(S(=O)(=O)NC(C)(C)C)c3ccccc23)n1CC1CCCCC1 yields pIC50 (FF) of 7.9
